Stability values for the molecules below.
# Test system: Liver
# ASSAY: Metabolic stability in mouse liver microsomes assessed as compound remaining at 0.1 uM after 30 mins by LC-MS/MS analysis
# Type: ADME, microsome
# EXPERIMENTAL_SETUP: 0.5 h

SMILES_NOTATION: CN(Cc1ccc(C(F)(F)F)nc1)c1cc(C(=O)Nc2nncs2)ncn1
Stability: 78%
//
SMILES_NOTATION: CC(C)Oc1ccc(NC(=O)c2cc(N(C)Cc3ccc(F)cc3)ncn2)cc1
Stability: 37%
//
SMILES_NOTATION: CN(Cc1ccc(F)cc1)c1cc(C(=O)Nc2nncs2)ncn1
Stability: 74%
//
SMILES_NOTATION: CN(Cc1ccc(C(F)(F)F)cc1)c1cc(C(=O)Nc2ccccc2)ncn1
Stability: 60%
//
SMILES_NOTATION: CN1CCN(c2ccc(NC(=O)c3cc(N(C)Cc4ccc(C(F)(F)F)cc4)ncn3)cc2)CC1
Stability: 21%
//
SMILES_NOTATION: CN(Cc1ccc(C(F)(F)F)nc1)c1cc(C(=O)Nc2ccccc2)ncn1
Stability: 87%
